Values from patent US20240279335A1

# experimental-system: T1, human CD28-Fc chimera (R&D, Cat. No. 342-CD) (human, UniProt P10747 19-152)
# T1 construct: Bought reagent; also called recombinant human CD28-Fc fusion protein; recombinant CD28 fused to an Fc backbone; Fc part of the bought chimera not given
# assay-name: SPR (Biacore), CD28-Fc immobilized on CM5 chip, VHH as analyte, multi-cycle kinetics, 1:1 model
reported-property: koff (s⁻¹)
Just the number in s⁻¹, nothing appended.

Q: Which koff value is on record for VHH 9B3 (VHH, also called 9B03) VHH: EVQLVESGGGLVQAGESLRLSCAASGSIASIRTMAWYRQAPGSQRELVAAISSGREVYYADSVKGRFTISRDNAKTTVYLQMNSLRPEDTAVYYCVVDMYWQDYWWWGQGTQVTVSS ?
Ans: 7.17e-08

Q: Which koff value is on record for VHH 11E11 (VHH) VHH: EVQLVESGGGLVQAGESLRLSCAASGSIASINSMAWYRQAPGSQRELVAAISNAREVYYADSVKGRFTISRDNAKTTVYLQMNSLRPEDTAVYYCVVDVYFQEYWYWGQGTQVTVSS ?
Ans: 1.64e-05

Q: Which koff value is on record for VHH 10E1 (VHH, also called 10E01) VHH: EVQLVESGGGLVQAGESLRLSCAASGSIASIKTMAWYRQAPGSQRELVAAINYIKEIYYADSVKGRFTISRDNAKTTVYLQMNSLRPEDTAVYYCVVDVTKEDYWYWGQGTQVTVSS ?
Ans: 2.84e-06

Q: Which koff value is on record for VHH 5A3 (VHH, also called 5A03) VHH: EVQLVESGGGLVQAGESLRLSCAASGSIASINSMGWYRQAPGSQRELVAAINEKLLIYYADSVKGRFTISRDNAKTTVYLQMNSLRPEDTAVYYCVVDLYGSDYWDWGQGTQVTVSS ?
Ans: 3.78e-05

Q: Which koff value is on record for VHH 11G11 (VHH) VHH: EVQLVESGGGLVQAGESLRLSCAASGSIASINTMAWYRQAPGSQRELVAAINSISRTYYADSVKGRFTISRDNAKTTVYLQMNSLRPEDTAVYYCVVDVTKEDYWYWGQGTQVTVSS ?
Ans: 5.77e-06

Q: Which koff value is on record for VHH 9A7 (VHH, also called 9A07) VHH: EVQLVESGGGLVQAGESLRLSCAASGSIASINSMGWYRQAPGSQRELVAAISDRSEKYYADSVKGRFTISRDNAKTTVYLQMNSLRPEDTAVYYCVVDHHHSDWWTWGQGTQVTVSS ?
Ans: 9.78e-06
